Data origin: ChEMBL document CHEMBL4689842

- System: Fibroblast
- Test Protocol: Multiplex assay against human fibroblast
- Assay type: toxicity, cell-based
- Stated Conditions: 24 h, 10 µM, compound concentration 10 uM, replicate 1
Test Readout: Population Membrane Permeable-Phenotype (%)
State the answer as a number, implicitly in %.

Previously resolved entries follow.
CNc1nc(NCc2ccc(NS(C)(=O)=O)cc2Cl)cc(-c2ccccn2)n1    18
O=C(NCCN1CCOCC1)c1ccc2c(c1)C(=O)c1ccc(Nc3ccc(F)c(NC(=O)c4ccccc4)c3)cc1CC2 [FS-694]    8
C=CC(=O)Nc1ccc2ncnc(Nc3ccc(OCc4cccc(F)c4)c(Cl)c3)c2c1.Cc1ccc(S(=O)(=O)O)cc1    37

Challenge: Reported Population Membrane Permeable-Phenotype (%) for O=C1NCN(c2ccccc2)C12CCN(CCCOc1ccc(F)cc1)CC2 [SPIRAMIDE] : what is it?
Response given: 10
